Reference for the values: ChEMBL document CHEMBL2150993

Test system: SF-295
MEASUREMENT_DESCRIPTION: Growth inhibition of human SF295 cells after 48 hrs by cell counting analysis
Assay type: functional
PARTICULARS: at 10 µM
Record met whenever growth inhibition (GI) is at 20% or higher; record not met when lower.

COMPOUND: O=C(CN1CCN(c2ccccc2)CC1)Nc1nc(-c2ccc(Br)cc2)cs1
LABEL: met
--
COMPOUND: Cc1ccc(-c2csc(NC(=O)CN3CCN(c4ccccc4)CC3)n2)cc1
LABEL: met
--
COMPOUND: O=C(CCCl)Nc1nc(-c2ccc(Cl)cc2)cs1
LABEL: met
--
COMPOUND: CN1CCN(CCC(=O)Nc2nc(-c3ccc(Br)cc3)cs2)CC1
LABEL: not met
--
COMPOUND: Cc1ccc(-c2csc(NC(=O)CN3CCN(C)CC3)n2)cc1
LABEL: not met
--
COMPOUND: Cc1ccc(-c2csc(NC(=O)CCN3CCN(c4ccccc4)CC3)n2)cc1
LABEL: not met
--
COMPOUND: Cn1cc(NC(=O)c2cc(NC(=O)CNC(=N)N)cn2C)cc1C(=O)NCCC(=N)N [NETROPSIN]
LABEL: not met
--
COMPOUND: Cc1ccc(-c2csc(NC(=O)CCCl)n2)cc1
LABEL: met
--
COMPOUND: O=C(CCN1CCN(c2ccccc2)CC1)Nc1nc(-c2ccc(Cl)cc2)cs1
LABEL: met
--
COMPOUND: CN1CCN(CCC(=O)Nc2nc(-c3ccc(Cl)cc3)cs2)CC1
LABEL: not met
--
COMPOUND: O=C(CN1CCN(c2ccccc2)CC1)Nc1nc(-c2ccc(Cl)cc2)cs1
LABEL: not met
